# assaySummary: Pharmacokinetic study in male Sprague Dawley rats
# Assay type: in vivo, rat
# testContext: male, Sprague Dawley, rat, plasma, oral, 10 mg/kg, 10 mg/kg PO, Male Sprague Dawley Rats, 0.033 h, Rat-2; read-out: Plasma Concentration (ng/mL) Rat-2
recordedMetric: concentration at 0.033 h

IN: Looking for the measured concentration at 0.033 h of COc1cc(-c2cn(C)c(=O)c(C)c2C)cc(OC)c1CN1CC[C@H](N2CCN(c3ccc(N[C@H]4CCC(=O)NC4=O)cc3F)CC2)C(F)(F)C1 [Compound 1] , can you help?
OUT: 16.4 ng/mL

---

# assaySummary: Pharmacokinetic study in male CD1 mice
# Assay type: in vivo, mouse
# testContext: mouse, plasma; male CD1 mice, 10 mg/kg PO, Mean
recordedMetric: bioavailability (%)
Write the answer as a number in %, unit excluded.

IN: Request the reported bioavailability associated with COc1cc(-c2cn(C)c(=O)c(C)c2C)cc(OC)c1CN1CC[C@H](N2CCN(c3ccc(N[C@H]4CCC(=O)NC4=O)cc3F)CC2)C(F)(F)C1
OUT: 74.1
